target: F876L mutant Androgen Receptor (AR-F876L) (Homo sapiens (Human), UniProt P10275, F877L); experiment: LNCaP-AR-F876L ANT reporter assay (antagonist mode); format: cell-based; conditions: antagonist mode; maximum % inhibition of R1881 control response over tested concentration range; read-out: LNCaP-AR-F876L ANT MAX % Inh
Sequence (P10275 whole entry F877L): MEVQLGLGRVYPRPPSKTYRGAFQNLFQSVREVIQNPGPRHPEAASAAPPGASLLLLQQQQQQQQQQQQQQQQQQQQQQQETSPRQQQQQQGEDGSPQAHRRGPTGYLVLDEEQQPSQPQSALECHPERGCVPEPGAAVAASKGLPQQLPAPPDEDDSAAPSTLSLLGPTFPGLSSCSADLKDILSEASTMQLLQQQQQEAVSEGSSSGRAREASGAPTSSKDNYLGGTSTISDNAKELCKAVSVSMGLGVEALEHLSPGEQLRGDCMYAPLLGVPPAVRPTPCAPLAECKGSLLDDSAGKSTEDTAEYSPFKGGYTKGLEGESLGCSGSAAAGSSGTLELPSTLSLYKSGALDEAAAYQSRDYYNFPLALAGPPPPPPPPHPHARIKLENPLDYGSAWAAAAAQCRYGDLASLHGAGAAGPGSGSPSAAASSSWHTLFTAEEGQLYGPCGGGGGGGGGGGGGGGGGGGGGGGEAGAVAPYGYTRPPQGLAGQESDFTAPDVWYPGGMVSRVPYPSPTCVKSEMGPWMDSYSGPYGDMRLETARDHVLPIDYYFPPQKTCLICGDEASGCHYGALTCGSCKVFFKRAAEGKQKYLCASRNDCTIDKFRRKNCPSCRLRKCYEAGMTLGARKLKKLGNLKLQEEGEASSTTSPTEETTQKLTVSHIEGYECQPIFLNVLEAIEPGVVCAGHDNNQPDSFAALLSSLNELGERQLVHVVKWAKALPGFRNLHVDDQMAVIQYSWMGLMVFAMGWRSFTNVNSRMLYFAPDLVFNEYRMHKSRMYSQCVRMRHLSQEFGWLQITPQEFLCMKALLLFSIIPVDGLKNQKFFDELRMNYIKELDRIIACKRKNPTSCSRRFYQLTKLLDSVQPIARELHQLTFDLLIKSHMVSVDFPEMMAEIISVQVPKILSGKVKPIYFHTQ
Please go through the items and note down their Emax.

// worked examples, Emax included
compound	Emax
CN1CCC[C@@H](CNC(=O)c2ccc(N3C(=S)N(c4cnc(C#N)c(C(F)(F)F)c4)C(=O)C34CCC4)cc2)C1	102%
COc1cc(N2C(=O)C3(CCC3)N(c3ccc4c(cnn4C4CCNCC4)c3)C2=S)cnc1C#N	101%
COc1cc(N2C(=O)C3(CCC3)N(c3ccc(CC4CCNCC4)cc3)C2=S)cnc1C#N	101%
CN(C)C1(COc2ccc(N3C(=S)N(c4cnc(C#N)c(C(F)(F)F)c4)C(=O)C34CCC4)cc2)COC1	101%
CN1CCC(Oc2ccc(N3C(=S)N(c4cnc(C#N)c(C(F)(F)F)c4)C(=O)C34CCC4)cn2)CC12CCC2 (racemic)	103%
Cn1cnc2cc(N3C(=S)N(c4cnc(C#N)c(C(F)(F)F)c4)C(=O)C34CCC4)ccc21	101%

Now let's try a different one.
Exercise: What value of Emax on F876L mutant Androgen Receptor (AR-F876L) (Homo sapiens (Human), UniProt P10275, F877L) does N#Cc1ncc(N2C(=O)C3(CCC3)N(c3ccc4c(ccn4C4CCNCC4)c3)C2=S)cc1C(F)(F)F have?
Solution: 103%

The reported measurements were obtained from patent US10981926B2.
